# test-target: HIV protease (Human immunodeficiency virus type 1 group M subtype B)
# Construct: plasmid containing HIV protease under the control of an inducible T7 promoter; made in house; host or cells: E. coli (inclusion bodies, T7 promoter)
# assay-method-text: biochemical
# Set-up: species or system HIV-1
# setup-conditions: Table 1a; read-out: Ki
measured-endpoint: Ki

Examples with answers:
Any idea what its Ki is? The compound is CCCCCCCN1C(=O)N(CCCCCCC)C(Cc2ccccc2)C(O)C(O)C1Cc1ccccc1 (stereo not drawn) [Example 1AB]
10 to 1000 nM

Can you handle CN1C(=O)N(Cc2ccccc2)C(Cc2ccccc2)C(O)C(O)C1Cc1ccccc1 (stereo not drawn) [Example 1AY] next?
10 to 1000 nM

---
Data request, read-out Ki, for COCCOCCOCCN1C(=O)NC(Cc2ccccc2)C(O)C(O)C1Cc1ccccc1 (stereo not drawn) [Example 1R]
> 1000 nM
